Origin of measurements: paper PMC6201879

# test-method-notes: Pharmacokinetic profile in Sprague Dawley rats (IV and PO)
# Type: in vivo
# condition-set: rat, plasma, IV 1 mg/kg, Mean + SD (n = 3), read-out: Cl_obs
# key: entry, value: clearance
property: clearance (mL/min/kg)

[
  {
    "substance-smiles": "CC(C)(C)c1ccc(O)c(C(=O)Nc2ccc(C(=O)O)cc2C(F)(F)F)c1",
    "recorded-value": 1.33
  },
  {
    "substance-smiles": "CC(C)(C)c1ccc(O)c(C(=O)Nc2ccc(C(=O)O)cc2Cl)c1",
    "recorded-value": 8.63
  },
  {
    "substance-smiles": "CC(C)(C)c1ccc(O)c(C(=O)Nc2cc(C(=O)O)ccc2Cl)c1",
    "recorded-value": 0.91
  },
  {
    "substance-smiles": "CC(C)(C)c1cc(C(=O)Nc2ccc(C(=O)O)cc2Cl)c(O)c(C(C)(C)C)c1",
    "recorded-value": 3.11
  }
]

* * *

# test-method-notes: Pharmacokinetic profile in Sprague Dawley rats (IV and PO)
# Assay type: in vivo
# condition-set: rat, plasma, PO 5 mg/kg in PBS, Mean + SD (n = 3), read-out: MRT Inf_obs (PO)
In this section, each of the compounds is paired with its reported MRT inf.
property: MRT inf (h)

[
  {
    "compound": "CC(C)(C)c1ccc(O)c(C(=O)Nc2ccc(C(=O)O)cc2C(F)(F)F)c1 [Compound 500873]",
    "unit": "h",
    "recorded-value": 10
  },
  {
    "compound": "CC(C)(C)c1ccc(O)c(C(=O)Nc2cc(C(=O)O)ccc2Cl)c1 [Compound 600494]",
    "unit": "h",
    "recorded-value": 7.89
  },
  {
    "compound": "CC(C)(C)c1cc(C(=O)Nc2ccc(C(=O)O)cc2Cl)c(O)c(C(C)(C)C)c1 [Compound 600453]",
    "unit": "h",
    "recorded-value": 7.4
  },
  {
    "compound": "CC(C)(C)c1ccc(O)c(C(=O)Nc2ccc(C(=O)O)cc2Cl)c1 [Compound 500200]",
    "unit": "h",
    "recorded-value": 4.04
  }
]

* * *

# System: Salmonella typhimurium TA100
# condition-set: 1.5 ug/Well; without S9
property: Mean Revertant Colony Counts TA-100 S9-

[
  {
    "molecule": "CC(C)(C)c1ccc(O)c(C(=O)Nc2ccc(C(=O)O)cc2Cl)c1 [Compound 500200]",
    "property": "Mean Revertant Colony Counts TA-100 S9-",
    "recorded-value": 32.3
  },
  {
    "molecule": "CC(C)(C)c1cc(C(=O)Nc2ccc(C(=O)O)cc2Cl)c(O)c(C(C)(C)C)c1 [Compound 600453]",
    "property": "Mean Revertant Colony Counts TA-100 S9-",
    "recorded-value": 35.0
  },
  {
    "molecule": "CC(C)(C)c1ccc(O)c(C(=O)Nc2ccc(C(=O)O)cc2C(F)(F)F)c1 [Compound 500873]",
    "property": "Mean Revertant Colony Counts TA-100 S9-",
    "recorded-value": 33.0
  },
  {
    "molecule": "O=C(Nc1ccc([N+](=O)[O-])cc1Cl)c1cc(Cl)ccc1O [Niclosamide]",
    "property": "Mean Revertant Colony Counts TA-100 S9-",
    "recorded-value": 9.3
  },
  {
    "molecule": "CC(C)(C)c1ccc(O)c(C(=O)Nc2cc(C(=O)O)ccc2Cl)c1 [Compound 600494]",
    "property": "Mean Revertant Colony Counts TA-100 S9-",
    "recorded-value": 30.0
  }
]
